Test system: Fibroblast
Assay: Incucyte cell viability with human fibroblast; note: unitless GR value; below 1 slowed growth and below 0 cell loss
Format: toxicity, cell-based
Details: 18 h, 10 µM, compound concentration 10 uM, replicate number 1
Please go through the items and note down their Growth Rate.
Lab note: write the figure by itself, no unit.

Recorded Growth Rate for "C=C[C@@]12CCc3cc(O)ccc3[C@H]1CC[C@@]1(C)[C@H]2CC[C@@H]1O" , please? 0.92

Could you tell me which Growth Rate is on file for "Cc1nc2ccc(Oc3ccc(F)cc3)cc2c(=O)n1C[C@H]1CCCN(C(C)C)C1.Cl" ? 0.13

Given "c1ccc2c(c1)SCc1c-2[nH]c2ccccc12" , state its recorded Growth Rate. -0.86

Recorded Growth Rate of "CN1CCC(C#N)(NC(=O)[C@@H](NC(=O)N2CCOCC2)C(C)(C)C)CC1" , please. 0.98

Growth Rate for "CN(C)Cc1cccc(NC(=C2C(=O)Nc3cc(C(N)=O)ccc32)c2ccccc2)c1" ? -0.83

Quick check: Growth Rate of "CC[C@@H]1C(=O)N(C)c2cnc(Nc3ccc(C(=O)NC4CCN(C)CC4)cc3OC)nc2N1C1CCCC1" ? 0.76

Given "CN(C)CCC[C@@]1(c2ccc(F)cc2)OCc2cc(C#N)ccc21" , state its recorded Growth Rate. 0.69

Look up Growth Rate for this compound: "Nc1nc(-c2nn(Cc3ccccc3F)c3ncccc23)ncc1C1CC1" 0.69

# lookup: Growth Rate of "COc1cc2c(NC3CCN(C(C)C)CC3)nc(C3CCCCC3)nc2cc1OCCCN1CCCC1" -0.27

I am curious: what Growth Rate value has been reported for "CCCCNc1ncc2c(-c3ccc(CN4CCN(C)CC4)cc3)cn([C@H]3CC[C@H](O)CC3)c2n1" ? -0.08

# credit: ChEMBL document CHEMBL5303304
